- Test system: DU-145
- measurement_setup: read-out: Median Lethal Concentration (LC50); Prostate Cancer, DU-145; 48 hours, SRB assay

- smiles_string: "O=C1C(=Cc2ccccc2O)COCC1=Cc1ccccc1O"
  CC50 [µM]: 20.1

###

- Tested on: K-562
- measurement_setup: read-out: Median Lethal Concentration (LC50); Leukemia, K-562; 48 hours, SRB assay

- smiles_string: "O=C1C(=Cc2ccccc2O)COCC1=Cc1ccccc1O"
  CC50 / µM: 91.8

###

Form field: CC50 (one value per entry).
- Tested on: PC-3
- test_details: cells
- measurement_setup: Homo sapiens, PC-3, 48 h, read-out: Median Lethal Concentration (LC50)
endpoint_name: CC50 (µM)

- compound: "OC(CCc1ccc(F)cc1F)CCc1ccc(F)cc1F"
  system_name: "PC-3"
  u: "µM"
  value: 56.7
- compound: "CC1(/C=C/c2ccccc2O)C=Cc2ccccc2O1 (stereo not drawn)"
  system_name: "PC-3"
  u: "µM"
  value: 55.6
- compound: "O=C(C=Cc1ccc(F)cc1F)C=Cc1ccc(F)cc1F"
  system_name: "PC-3"
  u: "µM"
  value: 41
- compound: "COc1cc(/C=C/C(=O)CC(=O)/C=C/c2ccc(O)c(OC)c2)ccc1O"
  system_name: "PC-3"
  u: "µM"
  value: 63.1
- compound: "CC(=O)O.O=C1C(=Cc2ccccc2F)CNCC1=Cc1ccccc1F"
  system_name: "PC-3"
  u: "µM"
  value: 7.2
- compound: "O=C1C(=Cc2ccccc2O)CCCC1=Cc1ccccc1O"
  system_name: "PC-3"
  u: "µM"
  value: 28.6

###

- Test system: MDA-N
- measurement_setup: read-out: Median Lethal Concentration (LC50), Breast Cancer, 48 hours, SRB assay

- smiles_string: "O=C1C(=Cc2ccccc2O)COCC1=Cc1ccccc1O"
  u: "µM"
  CC50: 20

###

- Test system: NCI/ADR-RES
- test_details: cells
- measurement_setup: Homo sapiens, 48 h, read-out: Median Growth Inhibitory Concentration (GI50)
Form field: log10 of GI50 (one value per entry).
endpoint_name: log10 of GI50 (log10 of the value in µM)

- molecule: "COc1cc(/C=C/C(=O)CC(=O)/C=C/c2ccc(O)c(OC)c2)ccc1O"
  value: 0.90
- molecule: "CC1(/C=C/c2ccccc2O)C=Cc2ccccc2O1 (stereo not drawn)"
  value: 1.29
- molecule: "O=C(C=Cc1ccc(F)cc1F)C=Cc1ccc(F)cc1F"
  value: 1.49
- molecule: "OC(CCc1ccc(F)cc1F)CCc1ccc(F)cc1F"
  value: 1.40
- molecule: "O=C1C(=Cc2ccccc2O)CCCC1=Cc1ccccc1O"
  value: 0.43
- molecule: "CC(=O)O.O=C1C(=Cc2ccccc2F)CNCC1=Cc1ccccc1F"
  value: -0.05

###

- System: OVCAR-8
- measurement_setup: read-out: Median Lethal Concentration (LC50); Ovarian Cancer, OVCAR-8; 48 hours, SRB assay

- compound: "O=C1C(=Cc2ccccc2O)COCC1=Cc1ccccc1O [EF25]"
  CC50: "23 µM"

###

- System: SR
- test_details: cells
- measurement_setup: Homo sapiens, 48 h, read-out: Median Growth Inhibitory Concentration (GI50)
Form field: GI50 (one value per entry).
endpoint_name: GI50 (nM)

- compound: "OC(CCc1ccc(F)cc1F)CCc1ccc(F)cc1F"
  endpoint_name: "GI50"
  value: 22700
- compound: "CC1(/C=C/c2ccccc2O)C=Cc2ccccc2O1 (stereo not drawn)"
  endpoint_name: "GI50"
  value: 15200
- compound: "CC(=O)O.O=C1C(=Cc2ccccc2F)CNCC1=Cc1ccccc1F"
  endpoint_name: "GI50"
  value: 100
- compound: "O=C1C(=Cc2ccccc2O)CCCC1=Cc1ccccc1O"
  endpoint_name: "GI50"
  value: 1600
- compound: "O=C(C=Cc1ccc(F)cc1F)C=Cc1ccc(F)cc1F"
  endpoint_name: "GI50"
  value: 1200
- compound: "COc1cc(/C=C/C(=O)CC(=O)/C=C/c2ccc(O)c(OC)c2)ccc1O"
  endpoint_name: "GI50"
  value: 3200
